# assayed.target: Human recombinant Acetyl-CoA Carboxylase 2 (ACC2) (Homo sapiens)
# procedure.details: Assay Y: ACC2 inhibition, inorganic phosphate (Malachite Green)
# Format: biochemical
# assay.setup: Assay Y: room temperature, 3 hr, 15 min preincubation
pIC50: −log10 of the molar value.
metric: pIC50

In [3]: df
Out[3]:
                               input_smiles  endpoint_value
0  CCOC(=O)NC[C@H]1CC[C@H](CNC(=O)c2cc(-c3ccc(OCC)cc3)nc3ccccc23)CC1            5.89
1  CN1CCN(CCCOc2cc(C(=O)NC[C@H]3CC[C@H](CNC(=O)OC(C)(C)C)CC3)c3ccccc3n2)CC1            5.97
2  CN(C)S(=O)(=O)c1ccc(-c2cc(C(=O)NC[C@H]3CC[C@H](CNC(=O)OC4CCOCC4)CC3)c3ccccc3n2)cc1            6.02
3  CC(C)(C)OC(=O)NC[C@H]1CC[C@H](CNC(=O)c2cc(-c3cccc(CC(=O)O)c3)nc3ccccc23)CC1            6.00

* * *

# assayed.target: Human recombinant Acetyl-CoA Carboxylase 2 (ACC2) (Homo sapiens, UniProt O00763)
# Sequence (O00763 whole entry): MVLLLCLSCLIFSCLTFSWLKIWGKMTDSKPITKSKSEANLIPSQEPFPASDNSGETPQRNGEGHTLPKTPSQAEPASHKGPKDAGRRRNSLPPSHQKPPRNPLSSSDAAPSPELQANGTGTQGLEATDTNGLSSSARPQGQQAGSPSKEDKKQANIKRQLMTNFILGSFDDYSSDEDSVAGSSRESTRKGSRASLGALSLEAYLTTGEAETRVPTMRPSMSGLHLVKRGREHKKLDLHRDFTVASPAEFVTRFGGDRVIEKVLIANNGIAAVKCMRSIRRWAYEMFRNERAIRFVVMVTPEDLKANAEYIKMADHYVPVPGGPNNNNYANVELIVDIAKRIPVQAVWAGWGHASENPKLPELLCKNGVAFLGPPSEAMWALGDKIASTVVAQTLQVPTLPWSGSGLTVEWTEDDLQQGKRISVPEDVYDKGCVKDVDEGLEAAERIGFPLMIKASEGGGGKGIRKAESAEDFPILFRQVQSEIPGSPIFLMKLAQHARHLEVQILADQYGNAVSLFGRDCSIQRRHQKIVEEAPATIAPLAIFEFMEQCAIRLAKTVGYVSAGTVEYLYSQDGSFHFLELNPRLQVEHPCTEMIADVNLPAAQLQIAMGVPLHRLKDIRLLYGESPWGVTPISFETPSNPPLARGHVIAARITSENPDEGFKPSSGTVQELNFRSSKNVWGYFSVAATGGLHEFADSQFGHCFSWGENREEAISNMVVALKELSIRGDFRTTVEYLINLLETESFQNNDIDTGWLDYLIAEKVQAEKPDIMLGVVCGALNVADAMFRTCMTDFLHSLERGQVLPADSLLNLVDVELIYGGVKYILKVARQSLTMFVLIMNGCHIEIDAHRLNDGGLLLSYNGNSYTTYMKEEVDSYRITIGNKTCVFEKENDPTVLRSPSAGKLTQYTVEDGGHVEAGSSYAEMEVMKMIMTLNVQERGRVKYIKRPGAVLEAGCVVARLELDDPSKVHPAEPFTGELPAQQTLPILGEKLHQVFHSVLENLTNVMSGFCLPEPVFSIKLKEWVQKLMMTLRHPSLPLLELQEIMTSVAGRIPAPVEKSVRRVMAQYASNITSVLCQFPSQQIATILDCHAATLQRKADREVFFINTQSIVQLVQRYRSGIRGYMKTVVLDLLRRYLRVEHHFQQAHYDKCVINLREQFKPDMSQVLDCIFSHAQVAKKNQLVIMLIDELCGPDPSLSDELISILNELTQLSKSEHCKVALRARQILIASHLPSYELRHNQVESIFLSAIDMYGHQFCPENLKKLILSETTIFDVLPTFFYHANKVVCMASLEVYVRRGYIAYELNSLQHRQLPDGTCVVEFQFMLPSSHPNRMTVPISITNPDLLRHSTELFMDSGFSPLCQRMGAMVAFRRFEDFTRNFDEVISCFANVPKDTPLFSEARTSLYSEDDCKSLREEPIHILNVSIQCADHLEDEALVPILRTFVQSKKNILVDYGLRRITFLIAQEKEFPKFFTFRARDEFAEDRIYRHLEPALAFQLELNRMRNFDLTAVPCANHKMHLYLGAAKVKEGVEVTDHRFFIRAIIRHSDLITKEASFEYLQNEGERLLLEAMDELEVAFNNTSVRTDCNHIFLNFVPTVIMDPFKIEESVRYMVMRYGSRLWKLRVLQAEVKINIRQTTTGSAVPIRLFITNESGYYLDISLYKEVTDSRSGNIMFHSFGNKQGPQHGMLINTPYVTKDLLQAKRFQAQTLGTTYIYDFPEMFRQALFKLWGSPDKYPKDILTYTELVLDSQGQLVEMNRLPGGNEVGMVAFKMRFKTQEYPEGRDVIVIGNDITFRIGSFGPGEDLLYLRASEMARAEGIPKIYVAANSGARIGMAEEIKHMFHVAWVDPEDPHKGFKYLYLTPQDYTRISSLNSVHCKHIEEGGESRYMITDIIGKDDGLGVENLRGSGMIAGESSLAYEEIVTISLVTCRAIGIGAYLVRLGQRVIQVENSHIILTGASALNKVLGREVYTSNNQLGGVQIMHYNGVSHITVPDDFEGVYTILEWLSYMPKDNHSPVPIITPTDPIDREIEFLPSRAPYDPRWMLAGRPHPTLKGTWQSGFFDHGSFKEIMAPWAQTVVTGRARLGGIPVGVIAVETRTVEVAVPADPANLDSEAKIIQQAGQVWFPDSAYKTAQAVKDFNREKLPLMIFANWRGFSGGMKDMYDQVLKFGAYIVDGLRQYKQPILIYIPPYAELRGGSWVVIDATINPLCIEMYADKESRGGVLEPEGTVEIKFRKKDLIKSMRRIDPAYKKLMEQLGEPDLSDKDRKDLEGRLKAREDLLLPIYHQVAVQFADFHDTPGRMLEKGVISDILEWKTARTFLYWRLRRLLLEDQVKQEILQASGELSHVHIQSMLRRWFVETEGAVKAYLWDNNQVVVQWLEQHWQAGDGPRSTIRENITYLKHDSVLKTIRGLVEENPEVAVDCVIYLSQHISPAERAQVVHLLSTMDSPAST
# procedure.details: Assay X: ACC2 inhibition, inorganic phosphate (malachite green)
# Assay type: biochemical
# assay.setup: Assay X: 37° C., 1.5 h, 5 min pre-incubation
pIC50: −log10 of the molar value.
metric: pIC50

Examples with their reported pIC50 follow.
compound	pIC50
O=C(NC[C@H]1CC[C@H](CNC(=O)c2cc(-c3ccc(N4CC[C@@H](O)C4)nc3)nc3ccccc23)CC1)O[C@H]1CCOC1	6.07
O=C(NC[C@H]1CC[C@H](CNC(=O)c2cc(-c3ccc(N4CC[C@@H](O)C4)nc3)nc3ccccc23)CC1)OC1CCOCC1	6.29
CN(C)CCNc1ccc(-c2cc(C(=O)NC[C@H]3CC[C@H](CNC(=O)OC4CCOCC4)CC3)c3ccccc3n2)cn1	6.42
CC(O)C(C)Oc1ccc(-c2cc(C(=O)NC[C@H]3CC[C@H](CNC(=O)OC(C)(C)C)CC3)c3ccccc3n2)cn1 (relative stereo)	5.98
CC(C)(C)OC(=O)NC[C@H]1CC[C@H](CNC(=O)c2cc(-c3ccc(NCC(O)CO)nc3)nc3ccccc23)CC1 (relative stereo)	6.43

I. CC(C)(C)OC(=O)NC[C@H]1CC[C@H](CNC(=O)c2cc(N3CCC(OCc4ccc(F)cc4)CC3)nc3ccccc23)CC1
II. CC(C)(C)OC(=O)NC[C@H]1CC[C@H](CNC(=O)c2cc(N3CCC(CC(O)CN4CCCC4)CC3)nc3ccccc23)CC1 (single isomer, unassigned) [Example 209]
III. COCCNc1ccc(-c2cc(C(=O)NC[C@H]3CC[C@H](CNC(=O)OC(C)(C)C)CC3)c3ccccc3n2)cn1
IV. CC(C)(C)OC(=O)NC[C@H]1CC[C@H](CNC(=O)c2cc(N3CCC(CN4CCOCC4)CC3)nc3ccccc23)CC1
Hey, can you sort those compounds up there by pIC50, smallest first? Enter labels, ranked according to the request.
I, IV, III, II

a. CC(=O)NCCOC(=O)NC[C@H]1CC[C@H](CNC(=O)c2cc(-c3ccc(N4CCN(C)CC4)nc3)nc3ccccc23)CC1
b. CN(C)CCC1CCN(c2cc(C(=O)NC[C@H]3CC[C@H](CNC(=O)OC(C)(C)C)CC3)c3ccccc3n2)CC1
# compare pIC50 for a vs b ; return the one with the smaller value // return label of chosen record
a

a. CC(C)(C)OC(=O)NC[C@H]1CC[C@H](CNC(=O)c2cc(-c3ccc(OCN4CCCC4=O)nc3)nc3ccccc23)CC1
b. CC(C)(C)OC(=O)NC[C@H]1CC[C@H](CNC(=O)c2cc(-c3ccc(N4CCNC(=O)C4)nc3)nc3ccccc23)CC1
c. CC(=O)NCCC1CCN(c2cc(C(=O)NC[C@H]3CC[C@H](CNC(=O)OC(C)(C)C)CC3)c3ccccc3n2)CC1
Put the items in order so that reported pIC50 rises from first to last. Hello, could you send the labels back in the order asked? Thank you.
a, c, b
(a: 5.77, c: 6.25, b: 6.80)

* * *

# assayed.target: Human recombinant Acetyl-CoA Carboxylase 1 (ACC1) (Homo sapiens)
# procedure.details: Assay Y: ACC1 inhibition, inorganic phosphate (Malachite Green)
# Format: biochemical
# assay.setup: Assay Y: room temperature, 3 hr, 15 min preincubation
pIC50: −log10 of the molar value.
metric: pIC50

In [3]: df
Out[3]:
                               input_smiles  metric  endpoint_value
0  CC(C)(C)OC(=O)NC[C@H]1CC[C@H](CNC(=O)c2cc(-c3ccc(CN)cc3)ncc2Cl)CC1   pIC50            5.43

A. CC(C)(C)OC(=O)NC[C@H]1CC[C@H](CNC(=O)c2cc(-c3ccncc3)nc3ccccc23)CC1
B. CN1CCN(c2ccc(-c3cc(C(=O)N[C@H]4CC[C@H](CNC(=O)OC(C)(C)C)CC4)c4ccccc4n3)cn2)CC1
In terms of reported pIC50, does A or B have the smaller number? Mark your selection by writing its label.
B

* * *

# assayed.target: Human recombinant Acetyl-CoA Carboxylase 1 (ACC1) (Homo sapiens, UniProt Q13085)
# procedure.details: Assay Y: ACC1 inhibition, inorganic phosphate (Malachite Green)
# Format: biochemical
# assay.setup: Assay Y: room temperature, 3 hr, 15 min preincubation
Each entry below lists one item and its recorded IC50 value.

What IC50 value was documented for this compound, CC(C)(C)OC(=O)NC[C@H]1CC[C@H](CNC(=O)c2cc(-c3ccc(C(F)(F)F)cc3)nc3ccccc23)CC1 ?
> 20 µM

Item: CC(C)(C)OC(=O)NC[C@H]1CC[C@H](CN(CC2CCOCC2)S(=O)(=O)c2ccc3ccccc3c2)CC1
> 20 µM

For CCOc1ccc(-c2cc(C(=O)NC[C@H]3CC[C@H](CNC(=O)OC(C)(C)C)CC3)ccn2)cn1 then?
> 20 µM

* * *

# assayed.target: Human recombinant Acetyl-CoA Carboxylase 1 (ACC1) (Homo sapiens)
# procedure.details: Assay X: ACC1 inhibition, inorganic phosphate (malachite green)
# Format: biochemical
# assay.setup: Assay X: 37° C., 1.5 h, 5 min pre-incubation
metric: IC50 (µM)

Consider the worked cases shown below.
molecule	IC50, µM
COCCN(C)CCC1CCN(c2cc(C(=O)NC[C@H]3CC[C@H](CNC(=O)OC(C)(C)C)CC3)c3ccccc3n2)CC1	1.63
CN1CCN(c2ccc(-c3cc(C(=O)NC[C@H]4CC[C@H](CNC(=O)OCCC#N)CC4)c4ccccc4n3)cn2)CC1	5.76

A. CC(C)(C)OC(=O)NC[C@H]1CC[C@H](CNC(=O)c2cc(N3CCC(CC(O)CN4CCCC4)CC3)nc3ccccc23)CC1 (single isomer, unassigned) [Example 209]
B. CC(C)(C)OC(=O)NC[C@H]1CC[C@H](CNC(=O)c2cc(N3CCNCC3)nc3ccccc23)CC1
Looking at A and B , which one comes out lower in IC50 terms? # respond with the chosen item's label
A

* * *

# assayed.target: Human recombinant Acetyl-CoA Carboxylase 1 (ACC1) (Homo sapiens)
# procedure.details: Assay Y: ACC1 inhibition, inorganic phosphate (Malachite Green)
# Type: biochemical
# assay.setup: Assay Y: room temperature, 3 hr, 15 min preincubation
Each entry below carries its reported IC50.

Answered examples (8):
In [3]: df
Out[3]:
                               input_smiles  metric  endpoint_value
0  CCOC(=O)NC[C@H]1CC[C@H](CNC(=O)c2cc(-c3ccc(Cl)cc3)nc3ccccc23)CC1    IC50         > 20 µM
1  COCCOC(=O)NC[C@H]1CC[C@H](CNC(=O)c2cc(-c3ccncc3)nc3ccccc23)CC1    IC50         > 20 µM
2  CC(=O)N1CCN(c2ccc(-c3cc(C(=O)NC[C@H]4CC[C@H](CNC(=O)OC(C)(C)C)CC4)c4ccccc4n3)cn2)CC1    IC50         > 20 µM
3  CC(C)(C)OC(=O)NC[C@H]1CC[C@H](CN(CC#N)S(=O)(=O)c2ccc3ccccc3c2)CC1    IC50         > 20 µM
4  Cc1nc(-c2cccc(S(=O)(=O)NC[C@H]3CC[C@H](CNC(=O)OC(C)(C)C)CC3)c2)no1    IC50         > 20 µM
5  Cc1nc(-c2ccc(S(=O)(=O)NC[C@H]3CC[C@H](CNC(=O)OC(C)(C)C)CC3)s2)cs1    IC50         > 20 µM
6  COc1ccccc1-c1cc(C(=O)NC[C@H]2CC[C@H](CNC(=O)OC(C)(C)C)CC2)c2ccccc2n1    IC50         3.27 µM
7  CNS(=O)(=O)c1ccc(-c2cc(C(=O)NC[C@H]3CC[C@H](CNC(=O)OC4CCOCC4)CC3)c3ccccc3n2)cc1    IC50         3.07 µM

Which IC50 is listed for CNS(=O)(=O)c1ccc(-c2cc(C(=O)NC[C@H]3CC[C@H](CNC(=O)OC(C)(C)C)CC3)c3ccccc3n2)cc1 ?
0.53 µM

And CN1CCC(OC(=O)NC[C@H]2CC[C@H](CNC(=O)c3cc(-c4ccc(N5CCN(C)CC5)nc4)nc4ccccc34)CC2)CC1 ?
> 20 µM

Then this compound: CC(C)(C)OC(=O)NC[C@H]1CC[C@H](CNC(=O)c2cc(-c3cccc(C(N)=O)c3)nc3ccccc23)CC1
0.31 µM
